Biological target: T1, MEKK3^43–127 (MEKK3–PB1) (UniProt Q99759 43-127)
T1 construct: MEKK3, residues 43-127 (PB1 domain); The His6 tag was kept for the gold-labelling and co-pelletation experiments; source: E. coli BL21 (DE3), expressed from pETM11, purified; not shown: His6, N-terminal, kept
T1 sequence (looked up): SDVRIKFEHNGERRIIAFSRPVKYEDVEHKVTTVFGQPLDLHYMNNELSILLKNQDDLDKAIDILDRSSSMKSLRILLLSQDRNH
Assay: not stated; binding of NBR1–PB1 to MEKK3 'also measured'; method not given
Settings: both partners purified
pKd: −log10 of the molar value.

binder | pKd
NBR1^1–85 (human NBR1–PB1) (domain or fragment, UniProt Q14596 1-85, looked up, NBR1, human, residues 1-85 (PB1 domain); The His6 tag was kept for the gold-labelling and co-pelletation experiments; also called HsNBR1^1–85; wild-type NBR1; source: E. coli BL21 (DE3), expressed from pETM11, purified; not shown: His6, N-terminal, kept) MEPQVTLNVTFKNEIQSFLVSDPENTTWADIEAMVKVSFDLNTIQIKYLDEENEEVSINSQGEYEEALKMAVKQGNQLQMQVHEG | 4.88
